Source: the supplement of paper PMC10567573

B1: C1orf55 (parent)
chain: FTSPDYQQQCHEMAERLEDSVLKG

variants of: B1; experiment: protein stability index of a GFP-peptide fusion (GPS, HEK-293T) (PSI 1-6); higher = more stable; details: c terminus: a fixed tail appended;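 also: lentivirally expressed fusions sorted by FACS into six bins by GFP to DsRed ratio, PSI derived from sequencing read proportions per bin multiplied by bin number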
Listing: protein stability index of selected variants
parameter: protein stability index

| sequence-string | val |
| --- | --- |
| FTSPDYQQQCHEMAERLEDPVLKG | 2.12 |
| FTSKDYQQQCHEMAERLEDSVLKG | 2.41 |
| FTSPDYQQQCHEMVERLEDSVLKG | 2 |
| FTSPDYQQQCHEVAERLEDSVLKG | 1.91 |
| FTSPDYQQQCHEMAERLEDMVLKG | 2.06 |
| FTSPDYQQQCHEMAERLEDSVLEG | 2.35 |
| FTSPDYQQQCQEMAERLEDSVLKG | 2.87 |
| FTSPDYQQQCHEPAERLEDSVLKG | 2.83 |
| FTSPDYQQQCHEMAEKLEDSVLKG | 1.93 |
| FTSPDYQQQWHEMAERLEDSVLKG | 2.05 |
| FTSPDYQQQCHEMYERLEDSVLKG | 1.92 |
| DTSPDYQQQCHEMAERLEDSVLKG | 4.84 |
| FTSPDYQQQCHEMAERLEPSVLKG | 1.98 |
| FTSPDYQQQCHEMAERLIDSVLKG | 1.52 |
| FTSPDYQQQCHEMAERLEDSVRKG | 2.71 |
| FTSPDYQQQCHEMAERLVDSVLKG | 1.4 |
| FTSPDYQQNCHEMAERLEDSVLKG | 1.52 |
| FTSPDYQQQCHEMAERLEDSVLKE | 2.74 |
| FTSPDYQQQCHEMAERLEGSVLKG | 1.77 |
| FTSPDYQYQCHEMAERLEDSVLKG | 1.99 |
| FTSPDYQQQCHEMAHRLEDSVLKG | 2.34 |
| FTSPDYQQQCHEMAERLEDSQLKG | 2.21 |
| VTSPDYQQQCHEMAERLEDSVLKG | 4.07 |
| FTSPDYQQQCHSMAERLEDSVLKG | 1.73 |
| FTSPDYQHQCHEMAERLEDSVLKG | 2.35 |
| FTSPDCQQQCHEMAERLEDSVLKG | 4.51 |
| FTSQDYQQQCHEMAERLEDSVLKG | 2.62 |
| FTSNDYQQQCHEMAERLEDSVLKG | 2.52 |
| FTSPDYQQQCHEMAERLEDSVLNG | 2.6 |
| FTSPDYRQQCHEMAERLEDSVLKG | 1.85 |
| FTSPDYQQQCMEMAERLEDSVLKG | 2.33 |
| ITSPDYQQQCHEMAERLEDSVLKG | 4.68 |
| FTSPDYQQQCHEMAERLEDSFLKG | 2.01 |
| FTSPDYQQQEHEMAERLEDSVLKG | 4.53 |
| FTSPDYQQICHEMAERLEDSVLKG | 1.29 |
| FTSPDYQQQCHEMAERLEDSKLKG | 2.99 |
| KTSPDYQQQCHEMAERLEDSVLKG | 4.64 |
| FTSPDYIQQCHEMAERLEDSVLKG | 1.81 |
| FTSPDYQQQCHEMAERREDSVLKG | 2.72 |
| FTSPDYQQQCAEMAERLEDSVLKG | 2.83 |
| FTSPDYQQQCHEMAEDLEDSVLKG | 2.85 |
| FTSPKYQQQCHEMAERLEDSVLKG | 2.57 |
| FTSPDPQQQCHEMAERLEDSVLKG | 4.14 |
| FTSPDYQPQCHEMAERLEDSVLKG | 4.29 |
| FTSPDYQQQCHEMMERLEDSVLKG | 2.27 |
| FTSPDYQQQCHEMQERLEDSVLKG | 2.45 |
